# Study System: T1, GST-KIAA0807(S) PDZ domain 1 (Homo sapiens (Human)), Q6P0Q8
# T1 chain: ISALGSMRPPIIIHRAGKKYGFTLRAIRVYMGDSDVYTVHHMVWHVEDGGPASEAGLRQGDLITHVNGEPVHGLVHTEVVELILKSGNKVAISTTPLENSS
# Method: G' assay; further: key of the grades not given here
The label is rule met for Classification below 2 A450 class and rule not met for Classification equal to or exceeding 2 A450 class.

Binder: TFAAGFNSTGLPHSTTRV (modifications not checked) [Neuroligin]
Class Name: rule not met

Inquiry: Threshold test, Classification < 2 A450 class: TREDIYVNYPTFSRRPKTRV (modifications not checked) [DNAM-1]
Reply text: rule not met

Inquiry: Threshold test, Classification < 2 A450 class: QATSRNGHSARQHVVADTEL (modifications not checked) [CD34]
Reply text: rule not met

Inquiry: Threshold test, Classification < 2 A450 class: ARHRVTSYTSSSVNVSSNL (modifications not checked) [IL-8RA]
Reply text: rule met

Inquiry: Threshold test, Classification < 2 A450 class: VDSERRPHFPQFSYSASSTA (modifications not checked) [AKT1]
Reply text: rule met

Inquiry: Threshold test, Classification < 2 A450 class: HDFRRAFKKILARGDRKRIV (modifications not checked) [alpha-2A Adrenergic receptor]
Reply text: rule met

Inquiry: Threshold test, Classification < 2 A450 class: NSYVRDDAIFIKAIVDLTGL (modifications not checked) [TRAF2]
Reply text: rule not met
